Origin of values: paper PMC4963475

- Test system: BubR1/Bub3 complex (3×FLAG–BubR1 with untagged Bub3) (UniProt O60566 1-1050; O43684 1-328)
- Sequence (O60566 whole entry, chain 1 of 2): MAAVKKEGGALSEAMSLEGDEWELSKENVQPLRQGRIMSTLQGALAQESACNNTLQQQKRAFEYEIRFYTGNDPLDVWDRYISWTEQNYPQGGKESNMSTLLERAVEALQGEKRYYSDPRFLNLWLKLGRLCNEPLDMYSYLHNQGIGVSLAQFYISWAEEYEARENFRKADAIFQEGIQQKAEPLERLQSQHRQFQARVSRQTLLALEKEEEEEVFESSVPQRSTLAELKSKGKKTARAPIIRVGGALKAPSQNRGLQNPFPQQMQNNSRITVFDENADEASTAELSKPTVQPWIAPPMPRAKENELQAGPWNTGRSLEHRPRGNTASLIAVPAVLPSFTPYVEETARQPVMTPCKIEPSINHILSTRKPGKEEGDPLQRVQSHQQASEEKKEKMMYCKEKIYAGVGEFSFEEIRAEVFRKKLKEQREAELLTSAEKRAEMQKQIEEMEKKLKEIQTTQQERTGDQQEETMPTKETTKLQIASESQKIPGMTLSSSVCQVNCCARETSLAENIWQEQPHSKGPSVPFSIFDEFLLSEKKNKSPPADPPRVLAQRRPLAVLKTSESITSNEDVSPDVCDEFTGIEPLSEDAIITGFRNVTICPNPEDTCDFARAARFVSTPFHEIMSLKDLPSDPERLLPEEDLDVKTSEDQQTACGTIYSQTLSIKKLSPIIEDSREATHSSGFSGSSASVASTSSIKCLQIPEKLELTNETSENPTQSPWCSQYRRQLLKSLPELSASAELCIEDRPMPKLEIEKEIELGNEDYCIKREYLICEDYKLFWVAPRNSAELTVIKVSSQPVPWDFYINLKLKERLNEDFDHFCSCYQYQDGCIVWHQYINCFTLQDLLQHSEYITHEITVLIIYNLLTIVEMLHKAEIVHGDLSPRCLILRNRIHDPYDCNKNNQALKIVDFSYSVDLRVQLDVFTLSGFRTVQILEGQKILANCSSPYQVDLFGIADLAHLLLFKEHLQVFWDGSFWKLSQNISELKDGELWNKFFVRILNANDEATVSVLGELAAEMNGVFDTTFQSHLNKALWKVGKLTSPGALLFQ
- Sequence (O43684 whole entry, chain 2 of 2): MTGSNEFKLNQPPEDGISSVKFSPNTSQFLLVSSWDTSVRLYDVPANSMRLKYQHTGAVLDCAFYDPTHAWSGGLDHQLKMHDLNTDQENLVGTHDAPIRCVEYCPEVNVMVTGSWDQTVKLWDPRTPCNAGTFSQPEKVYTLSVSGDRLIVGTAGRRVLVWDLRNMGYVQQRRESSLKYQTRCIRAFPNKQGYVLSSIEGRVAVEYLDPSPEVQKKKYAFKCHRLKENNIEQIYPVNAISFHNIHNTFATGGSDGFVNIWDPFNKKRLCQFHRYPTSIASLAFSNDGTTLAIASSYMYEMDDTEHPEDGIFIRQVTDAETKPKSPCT
- Procedure details: MST; 150 mM NaCl

>  <Binder>
EDDKNDMDITKSYTIEIN (N-terminal Btn-PEG2-C-PEG2 (biotin, PEG2, cysteine, PEG2); Nle (norleucine) at position 7 of the letters, written here as M; phosphothreonine (Tp) at position 10 of the letters (MDIT); C-terminal amide) [MELT12p peptide (MDIT phosphorylated), Btn-PEG2-C-PEG2-EDDKND-Nle-DI-Tp-KSYTIEIN-amide]

>  <Kd, nM>
379

$$$$
